These measurements were taken from patent US20100144645A1.

Assign bioavailabiltty (% HC) IN Cmax to each entry below.
- assay: Intranasal bioavailability of hydrocodone conjugates
- protocol_conditions: rats, relative to hydrocodone
Residues, ends and D or L forms follow the SMILES beside them. *: point of attachment. X1 = COc1ccc2c3c1OC1C(O*)=CCC4[C@@H](C2)N(C)CC[C@]314
Answers are plain numbers, in % HC.

Examples with their reported bioavailabiltty (% HC) IN Cmax follow.
compound: CC[C@H](C)[C@H](NC(=O)[C@@H]1CCCN1C(=O)[C@@H]1CCCN1C(=O)[C@H](CCCCN)NC(=O)[C@@H](N)CCCCN)C(=O)OC1=CCC2[C@H]3Cc4ccc(OC)c5c4[C@@]2(CCN3C)C1O5 (stereo partly drawn) [Lys2-Pro2-Ile-HC] (H-KKPPI-X1)
bioavailabiltty (% HC) IN Cmax: 94
//
compound: CC[C@H](C)[C@H](NC(=O)[C@H](CC(C)C)NC(=O)[C@@H]1CCCN1)C(=O)OC1=CCC2[C@H]3Cc4ccc(OC)c5c4[C@@]2(CCN3C)C1O5 (stereo partly drawn) [Pro-Leu-Ile-HC]
bioavailabiltty (% HC) IN Cmax: 101

*Q* For the compound shown here, CC[C@H](C)[C@H](NC(=O)[C@H](Cc1ccccc1)NC(=O)[C@H](Cc1ccccc1)NC(=O)[C@H](Cc1ccc(O)cc1)NC(=O)[C@@H](N)Cc1ccc(O)cc1)C(=O)OC1=CCC2[C@H]3Cc4ccc(OC)c5c4[C@@]2(CCN3C)C1O5 (stereo partly drawn) [Tyr2-Phe2-Ile-HC] (H-YYFFI-X1) , give the reported bioavailabiltty (% HC) IN Cmax.
*A* 34

* * *

- assay: Intranasal bioavailability of hydromorphone conjugates
- protocol_conditions: rats, corrected value calculated based on the bioavailability of the control (HM)
Where a name gives a salt, the structure may show the parent alone. Residues, ends and D or L forms follow the SMILES beside them. *: point of attachment. X2 = CN1CC[C@]23c4c5ccc(O)c4O[C@H]2C(O*)=CC[C@H]3[C@H]1C5; X3 = CN1CC[C@]23c4c5ccc(O)c4OC2C(O*)=CCC3[C@H]1C5
outcome_measure: IN AUC % (%)
Answers are plain numbers, in %.

Solved entries (count: 3):
molecule: CC[C@H](C)[C@H](NC(=O)CNC(=O)CN)C(=O)OC1=CCC2[C@H]3Cc4ccc(O)c5c4[C@@]2(CCN3C)C1O5 (stereo partly shown) [GGI-HM]
IN AUC % (%): 24
//
molecule: CN1CC[C@]23c4c5ccc(O)c4O[C@H]2C(OC(=O)[C@H](Cc2ccccc2)NC(=O)[C@H](Cc2ccccc2)NC(=O)[C@H](Cc2ccccc2)NC(=O)[C@H](CCC(=O)O)NC(=O)[C@@H](N)CCC(=O)O)=CC[C@H]3[C@H]1C5 [EEFFF-HM, Glu2-Phe3-Hydromorphone.Dihydrochloride] (H-EEFFF-X2)
IN AUC % (%): 52
//
molecule: CC(C)[C@H](NC(=O)CNC(=O)CN)C(=O)OC1=CCC2[C@H]3Cc4ccc(O)c5c4[C@@]2(CCN3C)C1O5 (stereo partly shown) [GGV-HM]
IN AUC % (%): 51

Hey, quick one: what's IN AUC % for each of these?
1. CC(C)C[C@H](NC(=O)[C@H](Cc1ccccc1)NC(=O)[C@@H](N)Cc1ccccc1)C(=O)OC1=CC[C@H]2[C@H]3Cc4ccc(O)c5c4[C@@]2(CCN3C)[C@H]1O5 [FFL-HM]
2. CC[C@H](C)[C@H](NC(=O)[C@H](Cc1ccccc1)NC(=O)[C@@H](N)Cc1ccccc1)C(=O)OC1=CC[C@H]2[C@H]3Cc4ccc(O)c5c4[C@@]2(CCN3C)[C@H]1O5 [FFI-HM]

*A*
1: 92; 2: 79

Respectfully, I request IN AUC % for each entry included below.
1. CC[C@H](C)[C@H](NC(=O)[C@@H]1CCCN1C(=O)[C@@H]1CCCN1)C(=O)OC1=CCC2[C@H]3Cc4ccc(O)c5c4[C@@]2(CCN3C)C1O5 (stereo partly shown) [PPI-HM]
2. CC[C@H](C)[C@H](NC(=O)[C@H](Cc1ccccc1)NC(=O)[C@H](Cc1ccccc1)NC(=O)[C@H](Cc1ccc(O)cc1)NC(=O)[C@@H](N)Cc1ccc(O)cc1)C(=O)OC1=CCC2[C@H]3Cc4ccc(O)c5c4[C@@]2(CCN3C)C1O5 (stereo partly shown) [YYFFI-HM] (H-YYFFI-X3)
3. CC(C)[C@H](NC(=O)[C@H](Cc1ccc(O)cc1)NC(=O)[C@@H](N)Cc1ccc(O)cc1)C(=O)OC1=CCC2[C@H]3Cc4ccc(O)c5c4[C@@]2(CCN3C)C1O5 (stereo partly shown) [YYV-HM]
4. CC(C)[C@H](NC(=O)[C@H](Cc1ccccc1)NC(=O)[C@@H](N)Cc1ccccc1)C(=O)OC1=CC[C@H]2[C@H]3Cc4ccc(O)c5c4[C@@]2(CCN3C)[C@H]1O5 [FFV-HM]
5. CC(C)C[C@H](NC(=O)[C@H](CCCCN)NC(=O)[C@@H](N)CCCCN)C(=O)OC1=CCC2[C@H]3Cc4ccc(O)c5c4[C@@]2(CCN3C)C1O5 (stereo partly shown) [KKL-HM]

*A*
77
4
73
98
87
